Give growth for every item shown.
# Tested on: SF-539 CNS
# ASSAY EXPLANATION: NCI-60 one-dose screen, 48 h (100 = growth as untreated, 0 = no growth, -100 = all killed)
# EXPERIMENTAL PARAMETERS: 10 µM
The panel holds about 83,000 compounds, 20% with a hit somewhere; the sample as a whole holds those more often.
Give bare numbers, in %.

compound=O=C(N/N=C/c1ccc(Cl)cc1)c1ccccc1Nc1cccc(C(F)(F)F)c1 target_entity="SF-539 CNS" measurement_type=growth quantitative_result=48.9

For each of the items listed, what is its growth?
1. O=[N+]([O-])c1cc(Cl)cc(Cl)c1O
2. COc1ccc(C(c2ccc(OCCN(C)C)cc2)c2cc3ccccc3c3ccccc23)cc1 (stereo not drawn)
3. O=C1/C=C/[C@@H](O)[C@@H]2C[C@@H](O)C[C@H]2/C=C/CCC[C@H](CCc2ccc(NC(=S)Nc3ccc4c(c3)C(=O)OC43c4ccc(O)cc4Oc4cc(O)ccc43)cc2)O1
4. N#Cc1c(-c2ccc(Cl)cc2)csc1NC(=O)Nc1ccc(Cl)c(C(F)(F)F)c1
5. CC1C(=NC(=O)c2cnccn2)C(C)C(c2ccc(Cl)cc2)NC1c1ccncc1 (stereo not drawn)
6. N#Cc1c(N)nc(-c2cc(F)cc(C(F)(F)F)c2)nc1-c1ccccc1F

## Result
1: 89.7; 2: 66.9; 3: 29.4; 4: 31.5; 5: 86.1; 6: 52.1

Answer for every listed entry: what is its growth? The entries follow.
1. Cc1cc(=O)n2nnc3cc(Cl)c(Cl)cc3n12
2. CCN(CCCNc1cc2c(c(N)c1S(=O)(=O)O)C(=O)c1ccccc1C2=O)c1ccccc1
3. CC(C)(O)CCl
4. CCOC(=O)c1cc(C(=O)c2cc(OC)c(OC)c(OC)c2)n2c1ccc1c3cccnc3ccc12
5. O=C(N/N=C/c1cc([N+](=O)[O-])ccc1O)c1cccc2ccccc12
6. CCOC(=O)c1cc(C(=O)c2cc(OC)c(OC)c(OC)c2)n2ccc(-c3cc[n+](CC(=O)c4cc(OC)c(OC)c(OC)c4)cc3)cc12
7. COc1ccc(-c2cc(-c3ccc(Cl)cc3)nc(SCCCC(=O)NO)n2)cc1

## Result
[108, 98.4, 99.8, 55.5, 22.9, 30.4, 4.55]

Consider the following items and state reported growth for each.
1. O=C1NC(=O)c2c(CCCSc3nc4ccccc4c(=O)n3CCc3ccccc3)cccc21
2. COc1ccc(-c2nn(-c3cccc(Cl)c3)cc2-c2c(C#N)c(N)n(N)c(=O)c2C#N)cc1

## Result
[65.7, 72.8]
